# Test system: lab-adapted and clinical HIV-1 isolates
# EXPERIMENT: Infection assays in primary T CD4+ lymphocytes
# Type: cell-based
# EXPERIMENTAL SETUP: Human immunodeficiency virus 1, Lymphocyte, read-out: EC50 KER2008 (A)
ATTRIBUTE MEASURED: pEC50
Quick note: pEC50 means taking -log10 of the concentration in moles per liter.

Prompt: Tell me its pEC50 given Cc1cc(NS(=O)(=O)CC2CCCCC2)c(C)c(C(OC(C)(C)C)C(=O)O)c1-c1ccc2c(c1)CCCO2 (stereo not drawn) [S-I-82, reference compound] as the entry.
Response: 7.96

Prompt: Tell me its pEC50 given C[C@@H]1CCO[C@H]2Cn3cc(C(=O)NCc4ccc(F)cc4F)c(=O)c(O)c3C(=O)N12 [DTG, dolutegravir, reference compound] as the entry.
Response: 9.40

Prompt: Tell me its pEC50 given Cc1nc2ccccc2c(-c2ccc3c4c(ccnc24)CCO3)c1[C@H](OC(C)(C)C)C(=O)O [BI-224436, reference compound] as the entry.
Response: 7.43
